Data credit: patent US5427766A

# ASSAY OVERVIEW: physchem
# Assay type: physicochemical
# ASSAY CONDITIONS: solid state
# Description: (Z)-Stannyl olefin 4 (25 mg, 41 μmol) was added to 1 mL of chloroform and iodine (10.9 mg, […]) was added with stirring. Rapid decoloration took place and an additional amount of iodine (1 mg) was added which imparted a pink color. Several drops of methanolic potassium fluoride was added which precipitated a tin complex. To the slurry was added 0.5 mL of saturated […] and the organic phase was separated, dried over sodium sulfate and evaporated to give an oil. […]
ENDPOINT LABEL: remaining at 168 h (%)
Just the number in %, nothing appended.

Incoming: What value of remaining at 168 h has been reported for the following compound? CC[C@H]1C[C@@]2(C)[C@@H](CC[C@@]2(O)/C=C\I)[C@@H]2CCc3cc(O)ccc3[C@@H]12 [(Z)-iodo olefin 5]
Outgoing: 74

* * *

# ASSAY OVERVIEW: In vivo localization (biodistribution) in athymic female nude mice bearing intraperitoneal MCF-7 tumors
# Parameters: species or system athymic female NCR-Nu Mice
# ASSAY CONDITIONS: mouse, in vivo, ip, Percent Injected Dose/Gram, tumor
ENDPOINT LABEL: tissue uptake at 2 h (%ID/g)
Just the number in %ID/g, nothing appended.

Incoming: What value of tissue uptake at 2 h has been reported for the following compound? "CC[C@H]1C[C@@]2(C)[C@@H](CC[C@@]2(O)/C=C\[125I])[C@@H]2CCc3cc(O)ccc3[C@@H]12"
Outgoing: 2.33

* * *

# ASSAY OVERVIEW: In vivo localization (biodistribution) in athymic female nude mice bearing subcutaneous MCF-7 tumor xenografts
# Parameters: species or system athymic female NCR-Nu Mice
# ASSAY CONDITIONS: mouse, mcf-7 tumor, sc; Tumor, 10-12 hours, tail vein, subcutaneous MCF-7, mean, n = 5; read-out: Percent Injected Dose/Gram, tumor
ENDPOINT LABEL: tissue uptake (%ID/g)
Just the number in %ID/g, nothing appended.

Incoming: What value of tissue uptake has been reported for the following molecule? CC[C@H]1C[C@@]2(C)[C@@H](CC[C@@]2(O)/C=C\[125I])[C@@H]2CCc3cc(O)ccc3[C@@H]12 [Compound 5]
Outgoing: 0.83

* * *

# ASSAY OVERVIEW: In vivo localization (biodistribution) in athymic female nude mice bearing subcutaneous MCF-7 tumor xenografts
# Set-up: species or system athymic female NCR-Nu Mice
# ASSAY CONDITIONS: mouse, sc; Liver, 6 hours, tail vein, subcutaneous MCF-7, mean, n = 5; read-out: Percent Injected Dose/Gram, liver
ENDPOINT LABEL: tissue uptake at 6 h (%ID/g)
Just the number in %ID/g, nothing appended.

Incoming: What value of tissue uptake at 6 h has been reported for the following compound? "CC[C@H]1C[C@@]2(C)[C@@H](CC[C@@]2(O)/C=C\[125I])[C@@H]2CCc3cc(O)ccc3[C@@H]12"
Outgoing: 5.34

* * *

# ASSAY OVERVIEW: In vivo localization (biodistribution) in athymic female nude mice bearing intraperitoneal MCF-7 tumors
# Parameters: species or system athymic female NCR-Nu Mice
# ASSAY CONDITIONS: mouse, in vivo, ip, Percent Injected Dose/Gram, kidney
ENDPOINT LABEL: tissue uptake at 6 h (%ID/g)
Just the number in %ID/g, nothing appended.

Incoming: What value of tissue uptake at 6 h has been reported for the following molecule? "CC[C@H]1C[C@@]2(C)[C@@H](CC[C@@]2(O)/C=C\[125I])[C@@H]2CCc3cc(O)ccc3[C@@H]12"
Outgoing: 0.78

* * *

# ASSAY OVERVIEW: In vivo localization (biodistribution) in athymic female nude mice bearing intraperitoneal MCF-7 tumors
# Set-up: species or system athymic female NCR-Nu Mice
# ASSAY CONDITIONS: mouse, in vivo, ip, Percent Injected Dose/Gram, liver
ENDPOINT LABEL: tissue uptake at 6 h (%ID/g)
Just the number in %ID/g, nothing appended.

Incoming: What value of tissue uptake at 6 h has been reported for the following compound? CC[C@H]1C[C@@]2(C)[C@@H](CC[C@@]2(O)/C=C\[125I])[C@@H]2CCc3cc(O)ccc3[C@@H]12 [Compound 5]
Outgoing: 4.08

* * *

# ASSAY OVERVIEW: In vivo localization (biodistribution) in athymic female nude mice bearing intraperitoneal MCF-7 tumors
# Design: species or system athymic female NCR-Nu Mice
# ASSAY CONDITIONS: mouse, in vivo, ip, Fat, 6 hours, tail vein, intraperitoneal MCF-7, mean, n = 5; read-out: Percent Injected Dose/Gram, fat
ENDPOINT LABEL: tissue uptake at 6 h (%ID/g)
Just the number in %ID/g, nothing appended.

Incoming: What value of tissue uptake at 6 h has been reported for the following compound? "CC[C@H]1C[C@@]2(C)[C@@H](CC[C@@]2(O)/C=C\[125I])[C@@H]2CCc3cc(O)ccc3[C@@H]12"
Outgoing: 1.64

* * *

# ASSAY OVERVIEW: In vivo localization (biodistribution) in athymic female nude mice bearing subcutaneous MCF-7 tumor xenografts
# Design: species or system athymic female NCR-Nu Mice
# ASSAY CONDITIONS: mouse, sc; Blood, 2 hours, tail vein, subcutaneous MCF-7, mean, n = 5; read-out: Percent Injected Dose/Gram, blood
ENDPOINT LABEL: tissue uptake at 2 h (%ID/g)
Just the number in %ID/g, nothing appended.

Incoming: What value of tissue uptake at 2 h has been reported for the following molecule? CC[C@H]1C[C@@]2(C)[C@@H](CC[C@@]2(O)/C=C\[125I])[C@@H]2CCc3cc(O)ccc3[C@@H]12 [Compound 5]
Outgoing: 1.11

* * *

# ASSAY OVERVIEW: In vivo localization (biodistribution) in athymic female nude mice bearing subcutaneous MCF-7 tumor xenografts
# Set-up: species or system athymic female NCR-Nu Mice
# ASSAY CONDITIONS: mouse, sc; Muscle, 10-12 hours, tail vein, subcutaneous MCF-7, mean, n = 5; read-out: Percent Injected Dose/Gram, muscle
ENDPOINT LABEL: tissue uptake
Write the numeric value and follow it with the unit.

Incoming: What value of tissue uptake has been reported for the following compound? CC[C@H]1C[C@@]2(C)[C@@H](CC[C@@]2(O)/C=C\[125I])[C@@H]2CCc3cc(O)ccc3[C@@H]12 [Compound 5]
Outgoing: 0.09 %ID/g

* * *

# ASSAY OVERVIEW: In vivo localization (biodistribution) in athymic female nude mice bearing subcutaneous MCF-7 tumor xenografts
# Design: species or system athymic female NCR-Nu Mice
# ASSAY CONDITIONS: mouse, sc; Kidney, 6 hours, tail vein, subcutaneous MCF-7, mean, n = 5; read-out: Percent Injected Dose/Gram, kidney
ENDPOINT LABEL: tissue uptake at 6 h (%ID/g)
Just the number in %ID/g, nothing appended.

Incoming: What value of tissue uptake at 6 h has been reported for the following compound? "CC[C@H]1C[C@@]2(C)[C@@H](CC[C@@]2(O)/C=C\[125I])[C@@H]2CCc3cc(O)ccc3[C@@H]12"
Outgoing: 1.01

* * *

# ASSAY OVERVIEW: In vivo localization (biodistribution) in athymic female nude mice bearing subcutaneous MCF-7 tumor xenografts
# Parameters: species or system athymic female NCR-Nu Mice
# ASSAY CONDITIONS: mouse, uterus, sc; Uteri, 10-12 hours, tail vein, subcutaneous MCF-7, mean, n = 5; read-out: Percent Injected Dose/Gram, uteri
ENDPOINT LABEL: tissue uptake (%ID/g)
Just the number in %ID/g, nothing appended.

Incoming: What value of tissue uptake has been reported for the following compound? "CC[C@H]1C[C@@]2(C)[C@@H](CC[C@@]2(O)/C=C\[125I])[C@@H]2CCc3cc(O)ccc3[C@@H]12"
Outgoing: 3.66

* * *

# ASSAY OVERVIEW: In vivo localization (biodistribution) in athymic female nude mice bearing subcutaneous MCF-7 tumor xenografts
# Design: species or system athymic female NCR-Nu Mice
# ASSAY CONDITIONS: mouse, sc; Fat, 2 hours, tail vein, subcutaneous MCF-7, mean, n = 5; read-out: Percent Injected Dose/Gram, fat
ENDPOINT LABEL: tissue uptake at 2 h
Write the numeric value and follow it with the unit.

Incoming: What value of tissue uptake at 2 h has been reported for the following compound? CC[C@H]1C[C@@]2(C)[C@@H](CC[C@@]2(O)/C=C\[125I])[C@@H]2CCc3cc(O)ccc3[C@@H]12 [Compound 5]
Outgoing: 2.18 %ID/g

* * *

# ASSAY OVERVIEW: In vivo localization (biodistribution) in athymic female nude mice bearing intraperitoneal MCF-7 tumors
# Design: species or system athymic female NCR-Nu Mice
# ASSAY CONDITIONS: mouse, in vivo, ip, Percent Injected Dose/Gram, liver
ENDPOINT LABEL: tissue uptake at 2 h (%ID/g)
Just the number in %ID/g, nothing appended.

Incoming: What value of tissue uptake at 2 h has been reported for the following compound? "CC[C@H]1C[C@@]2(C)[C@@H](CC[C@@]2(O)/C=C\[125I])[C@@H]2CCc3cc(O)ccc3[C@@H]12"
Outgoing: 8.26
